B1: UBN1(92–175) [human] / H3.3/H4 [human | X. laevis] (parent complex)
chain 1: NDEEKERHKVEALARKFEEKYGGKKRRKDRIQDLIDMGYGYDESDSFIDNSEAYDELVPASLTTKYGGFYINSGTLQFRQASES
chain 2: not shown
chain 3: not shown

- Variants of: B1
- TEST_NAME: fluorescence polarization competition binding; 10 nM FITC-UBN1(127–148), 6.5 μM H3.3/H4; 20 mM HEPES pH 7.5, 750 mM NaCl, 1 mM TCEP; parent: 1.66e+04 nM
Items are presented alongside their recorded IC50.
The reply should contain only the number, in µM.

Answered cases to consult:
MUTANT_NAME: chain 1 D33A
IC50, µM: 19.6
--
MUTANT_NAME: chain 1 G40A
IC50, µM: 19.9

Shift focus to the following entry.
input: Please indicate IC50 recorded for chain 1 L57A
output: 19.6
